- Test Details: qHTS of pediatric cancer cell lines to identify multiple opportunities for drug repurposing: Primary screen for SJ-GBM2 cells (AID 1347091)
- Study Conditions: SJ-GBM2 viability, CellTiter-Glo luminescence, 48 h; series mostly up to 46 µM
Inconclusive results are not listed. Activity calls are given as the source filed them. The call rests on the fitted dose curve; in most records, active means well fitted cell-killing curve with a large enough effect; inconclusive means small, poorly fitted or top-dose-only effect; inactive means no such curve, though single readings can be large or run the other way.
Log the outcome using a class from class 1 = active, class 0 = inactive

Consider the worked cases shown below.
Compound | Group
Oc1c(Cl)cc(Cl)c(Cl)c1Cc1c(O)c(Cl)cc(Cl)c1Cl | class 1
CCN1CCN(C(=O)N[C@@H](C(=O)N[C@@H]2C(=O)N3C(C(=O)O)=C(CSc4nnnn4C)CS[C@H]23)c2ccc(O)cc2)C(=O)C1=O | class 0
COc1ccc(C(=O)c2ccccc2O)c(O)c1 | class 0
C=C[C@H]1CN2CC[C@H]1C[C@@H]2[C@@H](O)c1ccnc2ccc(OC)cc12 | class 0

q: What is the recorded call for this compound in the test? "CC(C)Nc1cccnc1N1CCN(C(=O)c2cc3cc(NS(C)(=O)=O)ccc3[nH]2)CC1"
a: class 0

q: What do we get for "O=C(CN1CCN(Cc2ccc3c(c2)OCO3)CC1)N1c2ccccc2Sc2ccccc21" ?
a: class 0
